test system: Influenza A virus; assay: Antiviral activity against amantadine-sensitive Influenza A virus (A/Ned/378/05 (H1N1)) infected in MDCK cells assessed as virus-induced cytopathic effect measured 3 days post infection by microscopic analysis; type: functional, organism-based; settings: 72 h
property_label: pEC50
Reminder that pEC50 means the negative base-10 logarithm of the concentration expressed in mol/L.

# lookup: Influenza A virus pEC50, key = `CCC1(CC)C2CC3CC(C2)CC1(NC)C3` 5.06

# lookup: Influenza A virus pEC50, key = `CCC1(CC)C2CC3CC(C2)CC1(N)C3` 5.33

# lookup: Influenza A virus pEC50, key = CC(N)C12CC3CC(CC(C3)C1)C2 (configuration not stated) 6.30

# lookup: Influenza A virus pEC50, key = `CC(=O)N[C@H]1[C@H]([C@H](O)[C@H](O)CO)OC(C(=O)O)=C[C@@H]1NC(=N)N` 5.77

# lookup: Influenza A virus pEC50, key = `CCOC(=O)C1=C[C@@H](OC(CC)CC)[C@H](NC(C)=O)[C@@H](N)C1` 5.82

# lookup: Influenza A virus pEC50, key = `NC(=O)c1ncn([C@@H]2O[C@H](CO)[C@@H](O)[C@H]2O)n1` 5.12

# lookup: Influenza A virus pEC50, key = `CCC1(CC)C2CC3CC(C2)CC1(N(C)C)C3` 4.64

====

test: Cytotoxicity against dog MDCK cells assessed as cell viability after 72 hrs by MTS assay; assay type: cell-based, Canis lupus familiaris
Kindly state CC50 at 72 h for each of the entries shown.

Check the records and state CC50 at 72 h for `CCC1(CC)C2CC3CC(C2)CC1(N)C3` > 100 µM

Check the records and state CC50 at 72 h for `CCCC1(CCC)C2CC3CC(C2)CC1(N(C)C)C3` > 100 µM

Check the records and state CC50 at 72 h for `CCC1(CC)C2CC3CC(C2)CC1(N(C)C)C3` > 100 µM

Check the records and state CC50 at 72 h for `NC(=O)c1ncn([C@@H]2O[C@H](CO)[C@@H](O)[C@H]2O)n1` ≥ 20 µM

Check the records and state CC50 at 72 h for `CC12CC3CC1(C)CC(N)(C2)C3(C)C` > 100 µM

Check the records and state CC50 at 72 h for `NC12CC3CC(CC(C3)C1)C2` > 100 µM

Check the records and state CC50 at 72 h for `CCC1(CC)C2CC3CC(C2)CC1(NC)C3` > 100 µM

Check the records and state CC50 at 72 h for `CN(C)C12CC3(C)CC(CC3(C)C1)C2(C)C` > 100 µM

Check the records and state CC50 at 72 h for CC(C)C1C2CC3CC(C2)CC1(N(C)C)C3 (stereo not given) ≥ 100 µM

Check the records and state CC50 at 72 h for CC(N)C12CC3CC(CC(C3)C1)C2 (stereo not given) > 100 µM

====

Kindly state MCC for each of the entries shown.
test: Cytotoxicity against dog MDCK cells assessed as cell morphology alterations; assay type: cell-based, Canis lupus familiaris

Check the records and state MCC for `CC(=O)N[C@H]1[C@H]([C@H](O)[C@H](O)CO)OC(C(=O)O)=C[C@@H]1NC(=N)N` > 200 µM

Check the records and state MCC for `CCOC(=O)C1=C[C@@H](OC(CC)CC)[C@H](NC(C)=O)[C@@H](N)C1` > 100 µM

Check the records and state MCC for `CC12CC3CC1(C)CC(N)(C2)C3(C)C` ≥ 100 µM

Check the records and state MCC for `CCC1(CC)C2CC3CC(C2)CC1(N)C3` ≥ 100 µM

Check the records and state MCC for `CN(C)C12CC3(C)CC(CC3(C)C1)C2(C)C` ≥ 100 µM

Check the records and state MCC for `CCC1(CC)C2CC3CC(C2)CC1(N(C)C)C3` ≥ 100 µM

Check the records and state MCC for `NC(=O)c1ncn([C@@H]2O[C@H](CO)[C@@H](O)[C@H]2O)n1` ≥ 100 µM

Check the records and state MCC for `CCCC1(CCC)C2CC3CC(C2)CC1(N(C)C)C3` ≥ 100 µM
